# Tested on: Klebsiella pneumoniae
# Method summary: Broth microdilution MIC (Example 12)
# Test conditions: K. pneumoniae CDC 138; ESBL/NDM
MIC for assorted compounds
Readout: MIC

# Smiles code, Value reported
records = [
    ("C[C@H]1COc2c(N3CCN(C)CC3)c(F)cc3c(=O)c(C(=O)O)cn1c23", ">8 µg/mL"),
    ("C[C@@H](O)[C@H]1C(=O)N2C(C(=O)O)=C(S[C@@H]3CN[C@H](C(=O)N(C)C)C3)[C@H](C)[C@H]12", ">8 µg/mL"),
    ("CC(C)(O/N=C(\\C(=O)N[C@@H]1C(=O)N2C(C(=O)[O-])=C(C[n+]3ccccc3)CS[C@H]12)c1csc(N)n1)C(=O)O", ">64 µg/mL"),
    ("NCC[C@H](O)C(=O)N[C@@H]1C[C@H](N)[C@@H](O[C@H]2O[C@H](CN)[C@@H](O)[C@H](O)[C@H]2O)[C@H](O)[C@H]1O[C@H]1O[C@H](CO)[C@@H](O)[C@H](N)[C@H]1O", ">64 µg/mL"),
]

---

# Test system: Pseudomonas aeruginosa
# Method summary: Broth microdilution MIC (Example 12)
# Test conditions: P. aeruginosa CDC 356; KPC
MIC for assorted compounds

# Smiles code, Relation operator, MIC (mg/L)
rows = [
    ("NCC[C@H](O)C(=O)N[C@@H]1C[C@H](N)[C@@H](O[C@H]2O[C@H](CN)[C@@H](O)[C@H](O)[C@H]2O)[C@H](O)[C@H]1O[C@H]1O[C@H](CO)[C@@H](O)[C@H](N)[C@H]1O", "=", 2),
    ("C[C@H]1COc2c(N3CCN(C)CC3)c(F)cc3c(=O)c(C(=O)O)cn1c23", "=", 0.12),
    ("CC(C)(O/N=C(\\C(=O)N[C@@H]1C(=O)N2C(C(=O)[O-])=C(C[n+]3ccccc3)CS[C@H]12)c1csc(N)n1)C(=O)O", "=", 64),
    ("C[C@@H](O)[C@H]1C(=O)N2C(C(=O)O)=C(S[C@@H]3CN[C@H](C(=O)N(C)C)C3)[C@H](C)[C@H]12", ">", 8),
]

---

# Tested on: vancomycin-intermediate Staphylococcus aureus (VISA)
# Method summary: Broth microdilution MIC (Example 12)
# Test conditions: S. aureus NRS 13
MIC for assorted compounds

# Compound, MIC, µg/mL
rows = [
    ("C[C@H]1COc2c(N3CCN(C)CC3)c(F)cc3c(=O)c(C(=O)O)cn1c23", 0.12),
    ("CN[C@H](CC(C)C)C(=O)N[C@H]1C(=O)N[C@@H](CC(N)=O)C(=O)N[C@H]2C(=O)N[C@H]3C(=O)N[C@H](C(=O)N[C@H](C(=O)O)c4cc(O)cc(O)c4-c4cc3ccc4O)[C@H](O)c3ccc(c(Cl)c3)Oc3cc2cc(c3O[C@@H]2O[C@H](CO)[C@@H](O)[C@H](O)[C@H]2O[C@H]2C[C@](C)(N)[C@H](O)[C@H](C)O2)Oc2ccc(cc2Cl)[C@H]1O", 2),
    ("CC(=O)NC[C@H]1CN(c2ccc(N3CCOCC3)c(F)c2)C(=O)O1", 2),
    ("CCC[C@@H]1C[C@@H](C(=O)N[C@@H]([C@H]2O[C@H](SC)[C@H](O)[C@@H](O)[C@H]2O)[C@H](C)Cl)N(C)C1", 0.06),
    ("CCCCCCCCCC(=O)NC(Cc1c[nH]c2ccccc12)C(=O)NC(CC(N)=O)C(=O)NC(CC(=O)O)C(=O)NC1C(=O)NCC(=O)NC(CCCN)C(=O)NC(CC(=O)O)C(=O)NC(C)C(=O)NC(CC(=O)O)C(=O)NCC(=O)NC(CO)C(=O)NC(C(C)CC(=O)O)C(=O)NC(CC(=O)c2ccccc2N)C(=O)OC1C (centres unmarked)", 2),
]
